// pKd lookup, one value per entry
target: T1, wild type FGFR3 expressed on cells (UniProt P22607 23-806, limits assumed); assay: FACS
T1 construct: whole, on cells; the myeloma cell lines and patient cells are human; also called WT FGFR3; B9-FGFR3^WT
T1 sequence (P22607 23-806 limits assumed): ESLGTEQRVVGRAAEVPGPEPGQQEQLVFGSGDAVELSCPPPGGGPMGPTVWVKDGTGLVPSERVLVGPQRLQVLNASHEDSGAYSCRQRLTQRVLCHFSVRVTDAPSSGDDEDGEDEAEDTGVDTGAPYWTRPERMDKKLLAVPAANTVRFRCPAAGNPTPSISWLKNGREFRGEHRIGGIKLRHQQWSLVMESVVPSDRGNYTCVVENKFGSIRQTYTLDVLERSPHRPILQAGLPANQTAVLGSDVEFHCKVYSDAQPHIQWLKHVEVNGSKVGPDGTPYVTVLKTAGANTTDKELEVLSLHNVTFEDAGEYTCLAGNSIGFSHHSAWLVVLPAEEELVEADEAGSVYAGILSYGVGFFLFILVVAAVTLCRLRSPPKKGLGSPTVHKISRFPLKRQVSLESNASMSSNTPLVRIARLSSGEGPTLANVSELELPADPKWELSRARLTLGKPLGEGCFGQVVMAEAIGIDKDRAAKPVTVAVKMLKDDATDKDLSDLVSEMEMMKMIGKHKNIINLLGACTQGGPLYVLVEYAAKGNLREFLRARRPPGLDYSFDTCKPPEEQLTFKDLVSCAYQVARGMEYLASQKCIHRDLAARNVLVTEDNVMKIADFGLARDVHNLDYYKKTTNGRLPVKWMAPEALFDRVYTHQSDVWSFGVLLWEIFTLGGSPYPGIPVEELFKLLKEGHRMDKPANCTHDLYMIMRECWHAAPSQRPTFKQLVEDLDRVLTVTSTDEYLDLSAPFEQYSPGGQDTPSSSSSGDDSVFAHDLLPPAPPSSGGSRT
By convention, pKd is the negative base-10 log of a molar concentration.

Use the examples below as a reference point.
PRO-012 (Fab, V domains shown, HuCAL clone; the IC50 may be of the Fab-dHLX format) VH: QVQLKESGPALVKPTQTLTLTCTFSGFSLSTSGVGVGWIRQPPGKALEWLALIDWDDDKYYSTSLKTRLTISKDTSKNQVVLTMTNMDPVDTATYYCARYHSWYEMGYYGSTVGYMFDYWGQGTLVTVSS VL: DIELTQPPSVSVAPGQTARISCSGDALGDKYASWYQQKPGQAPVLVIYDDSDRPSGIPERFSGSNSGNTATLTISGTQAEDEADYYCQSYDFDFAVFGGGTKLTVLG ... 8.19
PRO-001 Fab (Fab, V domains shown, Human Fab from the HuCAL-Fab-1 library; also called human anti-FGFR3 Fab PRO-001; anti-FGFR3 antibody) VH: QVQLQQSGPGLVKPSQTLSLTCAISGDSVSSNSAAWNWIRQSPGRGLEWLGRTYYRSKWYNDYAVSVKSRITINPDTSKNQFSLQLNSVTPEDTAVYYCARSYYPDFDYWGQGTLVTVSS VL: DIELTQPPSVSVAPGQTARISCSGDALGDKYASWYQQKPGQAPVLVIYDDSDRPSGIPERFSGSNSGNTATLTISGTQAEDEADYYCQSYDGPDLWVFGGGTKLTVLG ... 9.15

API: the following record is the query input.
For this binder ( PRO-026 (Fab, V domains shown, HuCAL clone; the VL is headed 'MS-Pro-26-VL'; also called MS-Pro-26) VH: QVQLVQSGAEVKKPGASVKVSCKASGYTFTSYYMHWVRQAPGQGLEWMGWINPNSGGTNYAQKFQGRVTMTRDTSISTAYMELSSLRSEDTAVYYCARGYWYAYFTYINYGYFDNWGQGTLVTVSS VL: DIALTQPASVSGSPGQSITISCTGTSSDVGGYNYVSWYQQHPGKAPKLMIYDVSNRPSGVSNRFSGSKSGNTASLTISGLQAEDEADYYCQSYDNNSDVVFGGGTKLTVLG ), measured pKd is 8.85
